target: human CD3 (human, UniProt P07766 23-207; P09693 23-182; P04234 22-171); assay: cell-based or functional assay
reported-endpoint: IC50, indirect ADC surrogate growth inhibition (anti-mouse-DM1) on Jurkat cells (nM)
Note: unit nM is implicit; provide only the numeric part.

Query :: Name the recorded IC50, indirect ADC surrogate growth inhibition (anti-mouse-DM1) on Jurkat cells of the binder listed here: F332-1E2 (antibody, mouse IgG2a, V domains shown, Sister clone 8C5 shares the same entries; also called F332-1E2-2; F332-1E2 (8C5)) VH: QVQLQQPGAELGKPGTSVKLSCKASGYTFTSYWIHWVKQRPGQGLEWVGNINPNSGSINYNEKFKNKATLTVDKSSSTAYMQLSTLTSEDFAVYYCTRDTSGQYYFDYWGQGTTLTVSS VL: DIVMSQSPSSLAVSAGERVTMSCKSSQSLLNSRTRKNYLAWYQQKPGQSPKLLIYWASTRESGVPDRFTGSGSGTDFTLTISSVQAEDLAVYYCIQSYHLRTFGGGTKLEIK
Result :: 0.031

Query :: Name the recorded IC50, indirect ADC surrogate growth inhibition (anti-mouse-DM1) on Jurkat cells of the binder listed here: F332-7C9 (antibody, mouse IgG2a, V domains shown, also called F332-7C9-2; F332-7C9 (5C7, 7D10)) VH: QVQLQQSGPELVKPGASVRISCKASGYTFTSHYLHWVKQRPGQGFEWIGWIYPGDGNTRYNEKFKDRATLTADKSSSTAYLHLSSLTSEDSAVYFCARDAGYYFDYWGQGTTLAVSS VL: DIVMSQSPSSLAVSAGEKVTMSCKSSQSLLNSRTRKNYLAWYQQKPGQSLKVLIYWASTRESGVPDRFTGSGSGTDFTLTISSVQAEDLAVYYCKQSYSLRTFGGGTKLEIK
Result :: 0.045

Query :: Name the recorded IC50, indirect ADC surrogate growth inhibition (anti-mouse-DM1) on Jurkat cells of the binder listed here: F332-7C5 (antibody, mouse IgG2a, V domains shown, also called F332-7C5-2; F332-7C5 (5E12, 10A8)) VH: QVQLQQPGAELGKPGTSVKLSCKASGYTFTSYWMHWVKQRPGQGLEWIGNINPSSGITNYNERFKNKATLTVDKSSTTAYMQLSILTSEDSAVYYCSRDISGQYYFNFWGQGTTLTVSS VL: DIVMSQSPSSLAVSAGEKVTMSCKSSQSLLNSRTRKNYLAWYQQKPGQSPKLLIYWASTRESGVPDRFTGTGSGTDFTLTISSVQAEDLAVYYCKQSYNLRTFGGGTKLEIK
Result :: 0.062
